target: Human IgG (HIgG) (human); test: batch adsorption isotherm, PBS pH 7.4, HWRGWV resin at 0.55 mmol/g, Langmuir fit
No end group written: not given here.
readout: Kd (nM)
Give bare numbers, in nM.

# Kd lookup, item HWRGWVA-{Toyopearl AF‑Amino‑650 resin}
947
